# test_system: panel of more than 300 wild-type and mutant kinases (313 kinase panel) (Homo sapiens, UniProt P10721, T670I)
# Sequence (P10721 26-976 T670I): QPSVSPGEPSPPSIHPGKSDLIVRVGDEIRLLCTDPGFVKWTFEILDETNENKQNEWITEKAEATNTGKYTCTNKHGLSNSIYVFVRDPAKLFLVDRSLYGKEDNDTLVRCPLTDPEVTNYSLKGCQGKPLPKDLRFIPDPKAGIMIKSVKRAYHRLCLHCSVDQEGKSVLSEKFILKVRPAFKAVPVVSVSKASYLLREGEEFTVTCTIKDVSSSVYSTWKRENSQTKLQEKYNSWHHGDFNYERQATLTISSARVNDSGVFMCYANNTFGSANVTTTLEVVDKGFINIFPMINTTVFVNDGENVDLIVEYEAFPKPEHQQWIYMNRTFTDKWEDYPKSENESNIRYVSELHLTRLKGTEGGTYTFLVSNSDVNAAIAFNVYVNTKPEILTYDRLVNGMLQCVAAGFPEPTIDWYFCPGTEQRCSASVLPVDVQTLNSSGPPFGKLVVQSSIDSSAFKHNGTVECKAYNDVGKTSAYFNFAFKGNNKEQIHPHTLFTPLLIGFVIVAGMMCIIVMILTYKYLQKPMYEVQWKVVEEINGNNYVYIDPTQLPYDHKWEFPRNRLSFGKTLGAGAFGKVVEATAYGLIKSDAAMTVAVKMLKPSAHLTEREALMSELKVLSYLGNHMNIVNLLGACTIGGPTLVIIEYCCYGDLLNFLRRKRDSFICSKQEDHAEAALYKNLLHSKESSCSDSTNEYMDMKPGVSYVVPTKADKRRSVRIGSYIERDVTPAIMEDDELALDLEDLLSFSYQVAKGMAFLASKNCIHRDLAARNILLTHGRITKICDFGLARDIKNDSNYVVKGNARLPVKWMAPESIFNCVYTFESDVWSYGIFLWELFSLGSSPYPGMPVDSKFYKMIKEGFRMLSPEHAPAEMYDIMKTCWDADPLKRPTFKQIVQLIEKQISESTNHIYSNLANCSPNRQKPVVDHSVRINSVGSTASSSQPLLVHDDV
# assay_method_text: Kinase profiling in a biochemical assay panel (mobility shift assays and ELISA), %-inhibition at 1 μM; selectivity entropy
# recorded_conditions: 1 µM
assay_readout: %-inhibition of KIT(T670I) (%)
Hi! Could you send only the number? It should be in %, unit omitted.

Quick one: %-inhibition of KIT(T670I) for Cc1cn(-c2cc(NC(=O)c3ccc(C)c(Nc4nccc(-c5cccnc5)n4)c3)cc(C(F)(F)F)c2)cn1 [nilotinib] ?
18

Then CS(=O)(=O)CCNCc1ccc(-c2ccc3ncnc(Nc4ccc(OCc5cccc(F)c5)c(Cl)c4)c3c2)o1 [lapatinib] ?
0

Then Cc1ccc(Nc2nccc(N(C)c3ccc4c(C)n(C)nc4c3)n2)cc1S(N)(=O)=O [pazopanib] ?
68

Then C#Cc1cccc(Nc2ncnc3cc(OCCOC)c(OCCOC)cc23)c1 [erlotinib] ?
14
